# assay target: T1, IL-2 receptor βγ complex on pan T cells (human, UniProt P14784 27-551; P31785 23-369)
# T1 sequence (looked up) 1: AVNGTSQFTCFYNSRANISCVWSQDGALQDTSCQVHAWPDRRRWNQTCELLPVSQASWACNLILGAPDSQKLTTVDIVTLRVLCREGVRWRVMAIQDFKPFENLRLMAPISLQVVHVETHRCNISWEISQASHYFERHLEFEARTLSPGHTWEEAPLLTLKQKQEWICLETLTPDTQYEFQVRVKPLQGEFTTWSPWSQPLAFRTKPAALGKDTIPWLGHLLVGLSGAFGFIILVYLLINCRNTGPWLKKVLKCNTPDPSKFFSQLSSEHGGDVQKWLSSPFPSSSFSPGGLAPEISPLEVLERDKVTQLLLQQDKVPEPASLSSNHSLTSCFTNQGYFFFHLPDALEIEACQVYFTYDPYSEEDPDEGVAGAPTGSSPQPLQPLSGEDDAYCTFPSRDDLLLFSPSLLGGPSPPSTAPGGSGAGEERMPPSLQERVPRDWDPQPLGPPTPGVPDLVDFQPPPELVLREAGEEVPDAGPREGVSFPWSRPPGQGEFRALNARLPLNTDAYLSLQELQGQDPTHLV
# T1 sequence (looked up) 2: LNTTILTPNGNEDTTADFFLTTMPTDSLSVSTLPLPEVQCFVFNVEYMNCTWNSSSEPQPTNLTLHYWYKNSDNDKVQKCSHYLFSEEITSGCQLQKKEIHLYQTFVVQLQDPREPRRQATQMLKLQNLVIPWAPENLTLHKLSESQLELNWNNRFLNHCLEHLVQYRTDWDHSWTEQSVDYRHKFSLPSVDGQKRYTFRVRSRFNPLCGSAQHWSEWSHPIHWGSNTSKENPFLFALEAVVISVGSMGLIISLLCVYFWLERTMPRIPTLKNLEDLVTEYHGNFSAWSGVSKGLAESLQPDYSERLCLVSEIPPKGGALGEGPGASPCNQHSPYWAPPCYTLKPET
# assay name: cell-based or functional assay
Bridges are numbered along the chain shown (N, C = ends). Primed or numbered codes have the meaning given here. [ ]: non-standard residue; d: D form. Ygp″ = O-(PEG8-amino)-tyrosine (O-(8x polyethylene glycol-amino)-tyrosine); Yn3″ = O-(PEG9-azido)-tyrosine (O-(9x polyethylene glycol-azido)-tyrosine); Ygp = O-(8x polyethylene glycol-amino)-tyrosine; Yn3 = O-(9x polyethylene glycol-azido)-tyrosine; hSer = N[C@@H](CCO)C(=O)O; Nle = CCCC[C@H](N)C(=O)O
Just a reminder that ties go to criterion not met: only Average EC50, pSTAT5 assay in pan T cells, MMP2 cleaved molecule strictly below 3 nM counts as criterion met.

Worked examples, 6 binders total:
binder	assigned category
CMP-158, MMP2 cleaved (ligand, also: MMP2-cleaved cleavable peptide, macrocycle opened, cut site not given here, remnants on Glu22 and N-terminus unspecified) APTSSSTKKTQLQLEHLLLDLE[Nle]ILNGINNYKNPKLTR[Nle]L[hSer][Yn3]KF[Ygp][Nle]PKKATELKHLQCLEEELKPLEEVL[hSer]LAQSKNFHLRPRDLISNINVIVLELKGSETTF[hSer]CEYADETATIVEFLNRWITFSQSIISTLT	criterion met
CMP-156, MMP2 cleaved (ligand, also: MMP2-cleaved cleavable peptide, macrocycle opened, cut site not given here, remnants on Glu19 and N-terminus unspecified) APTSSSTKKTQLQLEHLLEDLQ[Nle]ILNGINNYKNPKLTR[Nle]L[hSer][Yn3]KF[Ygp][Nle]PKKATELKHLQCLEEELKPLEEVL[hSer]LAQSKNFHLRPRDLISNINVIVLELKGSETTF[hSer]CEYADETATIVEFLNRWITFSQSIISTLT	criterion not met
CMP-137, MMP2 cleaved (ligand, not fully specified (residue 29, N-terminus); ends and bridges not checked; also: macrocycle opened by MMP2, Ala1 N-terminus and Glu29 side chain each carry PEG24-linked peptide remnant, cut site not given here) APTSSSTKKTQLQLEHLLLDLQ[Nle]ILNGIENYKNPKLTR[Nle]L[hSer][Yn3″]KF[Ygp″][Nle]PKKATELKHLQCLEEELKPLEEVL[hSer]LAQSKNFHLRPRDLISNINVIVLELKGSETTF[hSer]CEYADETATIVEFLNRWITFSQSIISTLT	criterion not met
CMP-138, MMP2 cleaved (ligand, not fully specified; as CMP-138 but cleavable peptide cut by MMP2 (macrocycle opened); cut site not given) APTSSSTKKTQLQLEHLLLDLQXILNGIENYKNPKLTRXLXYKFYXPKKATELKHLQCLEEELKPLEEVLXLAQSKNFHLRPRDLISNINVIVLELKGSETTFXCEYADETATIVEFLNRWITFSQSIISTLT	criterion met
CMP-151, MMP2 cleaved (ligand, disulfide 58-105; also: MMP2-cleaved cleavable peptide, macrocycle opened, cut site not given here, remnants on Lys23 and Ala1 N-terminus unspecified) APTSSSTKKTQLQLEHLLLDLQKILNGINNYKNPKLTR[Nle]L[hSer][Yn3]KF[Ygp][Nle]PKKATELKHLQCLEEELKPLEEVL[hSer]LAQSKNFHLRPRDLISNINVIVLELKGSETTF[hSer]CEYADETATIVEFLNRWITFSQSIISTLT	criterion met
CMP-160, MMP2 cleaved (ligand, ends and bridges not checked; also: cleavable moiety between Glu26 side chain and N-terminus (via PEG9) cut by MMP2, macrocycle opened, cut site not given here) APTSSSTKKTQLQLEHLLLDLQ[Nle]ILEGINNYKNPKLTR[Nle]L[hSer][Yn3]KF[Ygp][Nle]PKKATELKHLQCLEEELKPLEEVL[hSer]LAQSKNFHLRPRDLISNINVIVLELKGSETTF[hSer]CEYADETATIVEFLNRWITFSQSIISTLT	criterion met

Average EC50, pSTAT5 assay in pan T cells, MMP2 cleaved molecule under 3 nM? Item: CMP-155, MMP2 cleaved (ligand, also: MMP2-cleaved cleavable peptide, macrocycle opened, cut site not given here, remnants on Glu29 and N-terminus unspecified) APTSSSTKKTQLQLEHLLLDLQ[Nle]ILNGIENYKNPKLTR[Nle]L[hSer][Yn3]KF[Ygp][Nle]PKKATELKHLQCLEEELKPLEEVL[hSer]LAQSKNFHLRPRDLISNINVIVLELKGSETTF[hSer]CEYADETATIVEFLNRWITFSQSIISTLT
criterion met
